target: Acidic mammalian chitinase (Homo sapiens, UniProt Q9BZP6); experiment: Inhibition of His-tagged recombinant human acidic mammalian chitinase expressed in Escherichia coli Rosetta-gami 2 (DE3) using 4MU-(GlcNAc)2 as substrate assessed as production of 4-methylumbelliferone measured every 5 mins by fluorescence assay
Sequence (Q9BZP6 whole entry): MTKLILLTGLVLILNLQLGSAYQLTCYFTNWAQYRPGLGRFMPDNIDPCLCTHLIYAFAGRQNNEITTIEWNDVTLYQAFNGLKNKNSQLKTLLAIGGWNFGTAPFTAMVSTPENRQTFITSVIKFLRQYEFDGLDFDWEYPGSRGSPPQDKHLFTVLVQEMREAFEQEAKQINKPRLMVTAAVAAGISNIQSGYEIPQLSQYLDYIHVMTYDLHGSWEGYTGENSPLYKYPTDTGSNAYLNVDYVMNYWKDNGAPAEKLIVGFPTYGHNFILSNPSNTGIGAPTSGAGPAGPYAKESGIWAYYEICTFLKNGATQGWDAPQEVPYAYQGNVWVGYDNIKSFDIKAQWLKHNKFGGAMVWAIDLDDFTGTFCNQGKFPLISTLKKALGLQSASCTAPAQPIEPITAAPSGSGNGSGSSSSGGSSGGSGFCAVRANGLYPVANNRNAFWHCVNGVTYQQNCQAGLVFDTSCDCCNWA
measured_property: IC50 (µM)
// units = µM; emit number, no label

Param item = "CN=C(S)NNC(=O)c1oc2nc(-c3ccccc3)cc(C)c2c1N" ; retrieve measured IC50.
30
